Target desc: G-protein coupled receptor 55 (Homo sapiens, UniProt Q9Y2T6)
Sequence (Q9Y2T6 whole entry): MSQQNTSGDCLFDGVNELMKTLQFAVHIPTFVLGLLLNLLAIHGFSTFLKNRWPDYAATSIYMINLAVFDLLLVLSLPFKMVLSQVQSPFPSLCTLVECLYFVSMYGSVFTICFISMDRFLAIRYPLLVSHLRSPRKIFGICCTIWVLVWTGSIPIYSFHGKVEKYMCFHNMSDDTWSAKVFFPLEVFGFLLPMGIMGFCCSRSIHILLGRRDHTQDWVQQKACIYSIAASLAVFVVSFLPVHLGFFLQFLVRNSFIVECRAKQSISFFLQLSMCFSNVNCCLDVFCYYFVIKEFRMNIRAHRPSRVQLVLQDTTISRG
Experiment description: Agonist activity at human GPR55 expressed in HEK293 cells assessed as calcium signalling by fura 2-based digital epifluorescence microscopy
Format: functional, cell-based
Readout: log10(EC50) (log10 of the value in nM)
Kindly note that the scale is log10 and the underlying EC50 is in nM.

Past entries and their recorded results:
>  <Query smiles>
O=C(NC(=S)Nc1ccc(S(=O)(=O)NCc2ccccc2)cc1)c1ccc(-c2ccccc2)cc1

>  <Readout>
log10(EC50)

>  <Obs value>
0.75

$$$$
>  <Query smiles>
O=C(NC(=S)Nc1ccc(S(=O)(=O)NCc2ccco2)cc1)c1ccc(-c2ccccc2)cc1

>  <Readout>
log10(EC50)

>  <Obs value>
0.30

$$$$
>  <Query smiles>
COc1ccc(CNS(=O)(=O)c2ccc(NC(=S)NC(=O)c3ccc(-c4ccccc4)cc3)cc2)cc1

>  <Readout>
log10(EC50)

>  <Obs value>
0.89

$$$$

[in] Please give the measured log10(EC50) for this molecule: "CN(C)S(=O)(=O)c1ccc(NC(=S)NC(=O)c2ccc(-c3ccccc3)cc2)cc1"
[out] 1.75

[in] Please give the measured log10(EC50) for this molecule: "CC(C)CNS(=O)(=O)c1ccc(NC(=S)NC(=O)c2ccc(-c3ccccc3)cc2)cc1"
[out] 1.49

[in] Please give the measured log10(EC50) for this molecule: "CCCNS(=O)(=O)c1ccc(NC(=S)NC(=O)c2ccc(-c3ccccc3)cc2)cc1"
[out] 2.25

---

Target desc: Lysophosphatidylserine lipase ABHD12 (Homo sapiens) (UniProt Q8N2K0)
Sequence (whole entry): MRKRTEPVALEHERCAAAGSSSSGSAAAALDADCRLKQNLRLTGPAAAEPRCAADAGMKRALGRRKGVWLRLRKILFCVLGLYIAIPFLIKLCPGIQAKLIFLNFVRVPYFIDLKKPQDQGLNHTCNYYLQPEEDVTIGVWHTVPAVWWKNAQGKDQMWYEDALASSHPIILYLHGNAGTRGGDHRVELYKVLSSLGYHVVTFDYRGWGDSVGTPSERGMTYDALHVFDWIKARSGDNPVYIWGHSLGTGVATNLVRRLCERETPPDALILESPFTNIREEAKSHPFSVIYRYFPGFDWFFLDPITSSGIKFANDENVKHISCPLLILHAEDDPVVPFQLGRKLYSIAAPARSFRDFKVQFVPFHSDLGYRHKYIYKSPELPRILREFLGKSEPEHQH
Experiment description: Inhibition of human ABHD12 expressed in […] cells using 2-AG as substrate assessed as glycerol liberation at 10 uM preincubated for 30 mins followed by 2-AG addition measured for 90 mins by fluorescent glycerol assay relative to control
Assay type: cell-based
Set-up: scale not given: the % may be the effect or the level left
Classification field: enter Fulfilled for Activity values not below 70%, Not fulfilled for values below it.

[in] Given "CC(=O)NS(=O)(=O)c1ccc(NC(=S)NC(=O)c2cccc3ccccc23)cc1" , state whether its Activity is at least 70%.
[out] Fulfilled

[in] Given "Cc1ccc(C(=O)NC(=S)Nc2ccc(S(=O)(=O)NC(C)C)cc2)c(Br)c1" , state whether its Activity is at least 70%.
[out] Fulfilled

[in] Given "O=C(NC(=S)Nc1ccc(S(=O)(=O)NCc2ccccc2)cc1)c1ccc(-c2ccccc2)cc1" , state whether its Activity is at least 70%.
[out] Fulfilled

[in] Given "Cc1ccc(C(=O)NC(=S)Nc2ccc(S(=O)(=O)NC(C)(C)C)cc2)cc1" , state whether its Activity is at least 70%.
[out] Not fulfilled

---

Reported Activity values for a set of molecules
Target desc: UniProtKB Q8N2K0
Experiment description: Inhibition of human ABHD12 expressed in […] cells using 2-AG as substrate assessed as glycerol liberation at 1 uM preincubated for 30 mins followed by 2-AG addition measured for 90 mins by fluorescent glycerol assay relative to control
Format: cell-based
Design: scale not given: the % may be the effect or the level left
Report the figure in % without appending any unit label.

>  <Query smiles>
C=CCNS(=O)(=O)c1ccc(NC(=S)NC(=O)c2ccc(-c3ccccc3)cc2)cc1

>  <Target desc>
UniProtKB Q8N2K0

>  <U>
%

>  <Activity>
100

$$$$

[in] Please give the measured Activity for this molecule: "O=C(NC(=S)Nc1ccc(S(=O)(=O)NCCc2c[nH]c3ccccc23)cc1)c1ccc(-c2ccccc2)cc1"
[out] 101

[in] Please give the measured Activity for this molecule: "CC(C)NS(=O)(=O)c1ccc(NC(=S)NC(=O)c2ccc(-c3ccccc3)cc2)cc1"
[out] 107

[in] Please give the measured Activity for this molecule: "O=C(NCCc1ccccc1)c1ccc(NC(=S)NC(=O)c2ccc(-c3ccccc3)cc2)cc1"
[out] 98

[in] Please give the measured Activity for this molecule: "O=C(NC(=S)Nc1ccc(S(=O)(=O)NCc2ccco2)cc1)c1ccc(-c2ccccc2)cc1"
[out] 101

---

Target desc: G-protein coupled receptor 55 (Homo sapiens, UniProt Q9Y2T6)
Experiment description: Agonist activity at human GPR55 expressed in CHOK1 cells at 10 uM by pathHunter beta-arrestin assay relative to LPI
Format: cell-based
Condition details: CHO-K1
Readout: Activity (%)
Report the figure in % without appending any unit label.

>  <Query smiles>
CC(=O)NS(=O)(=O)c1ccc(NC(=S)NC(=O)c2ccc(C(C)C)cc2)cc1

>  <Target desc>
G-protein coupled receptor 55 (Homo sapiens, UniProt Q9Y2T6)

>  <Activity [%]>
67

$$$$
>  <Query smiles>
O=C(NC(=S)Nc1ccc(S(=O)(=O)Nc2ccccc2)cc1)c1ccc(-c2ccccc2)cc1

>  <Target desc>
G-protein coupled receptor 55 (Homo sapiens, UniProt Q9Y2T6)

>  <Activity [%]>
178

$$$$
>  <Query smiles>
CC(C)CNS(=O)(=O)c1ccc(NC(=S)NC(=O)c2ccc(-c3ccccc3)cc2)cc1

>  <Target desc>
G-protein coupled receptor 55 (Homo sapiens, UniProt Q9Y2T6)

>  <Activity [%]>
165

$$$$
>  <Query smiles>
COc1ccc(C(=O)NC(=S)Nc2ccc(S(=O)(=O)NC(C)C)cc2)cc1

>  <Target desc>
G-protein coupled receptor 55 (Homo sapiens, UniProt Q9Y2T6)

>  <Activity [%]>
62

$$$$

Moving on to another compound below.
[in] I'm curious: which Activity was measured for "O=C(NC(=S)Nc1ccc(S(=O)(=O)Nc2ccc(Cl)cc2)cc1)c1ccc(-c2ccccc2)cc1" tested on G-protein coupled receptor 55 (Homo sapiens, UniProt Q9Y2T6)?
[out] 158

---

Target desc: Monoacylglycerol lipase ABHD6 (Homo sapiens)
Experiment description: Inhibition of human ABHD6 expressed in […] cells using 2-AG as substrate assessed as glycerol liberation at 10 uM preincubated for 30 mins followed by 2-AG addition measured for 90 mins by fluorescent glycerol assay relative to control
Assay type: cell-based
Parameters: scale not given: the % may be the effect or the level left
Readout: Activity (%)
Report the figure in % without appending any unit label.

>  <Query smiles>
CC(C)CNS(=O)(=O)c1ccc(NC(=S)NC(=O)c2ccc(-c3ccccc3)cc2)cc1

>  <Readout>
Activity

>  <U>
%

>  <Obs value>
59

$$$$
>  <Query smiles>
CC(=O)NS(=O)(=O)c1ccc(NC(=S)NC(=O)c2ccc(C(C)C)cc2)cc1

>  <Readout>
Activity

>  <U>
%

>  <Obs value>
81

$$$$
>  <Query smiles>
COc1ccc(C(=O)NC(=S)Nc2ccc(S(=O)(=O)NC(C)C)cc2)cc1

>  <Readout>
Activity

>  <U>
%

>  <Obs value>
66

$$$$
>  <Query smiles>
CCCNS(=O)(=O)c1ccc(NC(=S)NC(=O)c2ccc(-c3ccccc3)cc2)cc1

>  <Readout>
Activity

>  <U>
%

>  <Obs value>
67

$$$$
>  <Query smiles>
C=CCN(CC=C)S(=O)(=O)c1ccc(NC(=S)NC(=O)c2ccc(-c3ccccc3)cc2)cc1

>  <Readout>
Activity

>  <U>
%

>  <Obs value>
74

$$$$

[in] I'm curious: which Activity was measured for "O=C(NC(=S)Nc1ccc(S(=O)(=O)NCc2ccccc2)cc1)c1ccc(-c2ccccc2)cc1" tested on Monoacylglycerol lipase ABHD6 (Homo sapiens)?
[out] 86

[in] I'm curious: which Activity was measured for "CC(=O)NS(=O)(=O)c1ccc(NC(=S)NC(=O)c2cccc3ccccc23)cc1" tested on Monoacylglycerol lipase ABHD6 (Homo sapiens)?
[out] 88

[in] I'm curious: which Activity was measured for "Cc1ccc(C(=O)NC(=S)Nc2ccc(S(=O)(=O)NC(C)C)cc2)c(Br)c1" tested on Monoacylglycerol lipase ABHD6 (Homo sapiens)?
[out] 59

---

Reported Activity values for a set of compounds
Target desc: G-protein coupled receptor 55 (Homo sapiens)
Experiment description: Agonist activity at human GPR55 expressed in CHOK1 cells at 10 uM by pathHunter beta-arrestin assay relative to LPI
Assay type: cell-based
Condition details: CHO-K1
Report the figure in % without appending any unit label.

>  <Query smiles>
CC(=O)NS(=O)(=O)c1ccc(NC(=S)NC(=O)c2cccc3ccccc23)cc1

>  <Readout>
Activity

>  <Obs value>
66

$$$$
>  <Query smiles>
Cc1ccc(C(=O)NC(=S)Nc2ccc(S(=O)(=O)NC(C)(C)C)cc2)cc1

>  <Readout>
Activity

>  <Obs value>
69

$$$$
>  <Query smiles>
O=C(NCCc1ccccc1)c1ccc(NC(=S)NC(=O)c2ccc(-c3ccccc3)cc2)cc1

>  <Readout>
Activity

>  <Obs value>
68

$$$$
>  <Query smiles>
CCCNS(=O)(=O)c1ccc(NC(=S)NC(=O)c2ccc(-c3ccccc3)cc2)cc1

>  <Readout>
Activity

>  <Obs value>
172

$$$$
>  <Query smiles>
O=C(NC(=S)Nc1ccc(S(=O)(=O)NCc2ccc(I)cc2)cc1)c1ccc(-c2ccccc2)cc1

>  <Readout>
Activity

>  <Obs value>
107

$$$$

[in] Please give the measured Activity for this compound: "CCCCc1ccc(NS(=O)(=O)c2ccc(NC(=S)NC(=O)c3ccc(-c4ccccc4)cc3)cc2)cc1"
[out] 91

[in] Please give the measured Activity for this compound: "O=C(NC(=S)Nc1ccc(S(=O)(=O)NCCc2c[nH]c3ccccc23)cc1)c1ccc(-c2ccccc2)cc1"
[out] 90

[in] Please give the measured Activity for this compound: "Cc1ccc(C(=O)NC(=S)Nc2ccc(S(=O)(=O)NC(C)C)cc2)c(Br)c1"
[out] 70
